Could you please report measured Activity for the items listed next?
# Test system: THP-1
# PROTOCOL SUMMARY: Cytotoxicity against human THP1 cells at 10 ug/ml
# Assay type: cell-based
One number for each entry, in %.

> print(dat)
                                   compound  value.measured
1  Cc1nc(C)c(-c2nn(-c3ccc(F)cc3)cc2C2CC(c3c(O)cc(C)c(Cl)c3C)=NN2)s1 (centres undefined)           15.45
2  Cc1nc(C)c(-c2nn(-c3ccc(F)cc3)cc2/C=C/C(=O)c2c(O)cc(C)c(Cl)c2C)s1           18.42
3  Cc1nc(C)c(-c2nn(-c3ccc(F)cc3)cc2/C=C/C(=O)c2cc(Cl)ccc2O)s1           34.74

Next up:
Asked: Request: Activity, test system THP-1, entry Cc1nc(C)c(-c2nn(-c3ccc(F)cc3)cc2C2CC(c3cc(Cl)c(C)cc3O)=NN2)s1 (centres undefined)
Given back: 10.66
